assay: Plasma niclosamide pharmacokinetics (LCMS, non-compartmental analysis); type: in vivo, human; conditions: male, human, plasma, po, 1000 mg, all 5 patients, 500 and 1000 mg cohorts; read-out: apparent oral clearance (CL/F), range over patients
QUANTITY: CL/F

Query block: Query (compound): O=C(Nc1ccc([N+](=O)[O-])cc1Cl)c1cc(Cl)ccc1O [niclosamide, 2',5-dichloro-4'-nitrosalicylanilide] ; field requested: CL/F
Result block: 152 to 630 mL/min/kg
